Assign Counts (raw counts for peptide sequence), Seq II to each entry below.
# tgt: biotinylated CD59 (Homo sapiens, UniProt P13987)
# Construct: Recombinant soluble human CD59 with an additional C-terminal cysteine residue
# Sequence (P13987 26-102 limits assumed): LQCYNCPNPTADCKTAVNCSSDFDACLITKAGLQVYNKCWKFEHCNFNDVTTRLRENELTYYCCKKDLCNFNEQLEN
# run_description: mRNA-display cyclic peptide screen against CD59-biotin, NGS abundance after 6th selection round
# stated_conditions: NGS sample Seq II, sheet R6 (6th selection round)
Number only, no unit.

Task: Item under review: SACGNRQIQYY . Reported Counts (raw counts for peptide sequence), Seq II?
Result: 6

Task: Another sequence to check: CFSARAVLDGGW
Result: 3

Task: Another sequence to check: LWWSDFYLCVVVRQRQRQLGRGAE
Result: 7

Task: Another sequence to check: RCWVRGSRNYT
Result: 4

Task: Another sequence to check: GYKNECHSFNW
Result: 6

Task: Another sequence to check: SWTRGNRSSVRG
Result: 5

Task: Another sequence to check: ITRGSNIYAYG
Result: 6

Task: Another sequence to check: WIYGGRHFRLS
Result: 2

Task: Another sequence to check: YVYGSRDRC
Result: 5

Task: Another sequence to check: CFVSRTQIGSV
Result: 2

====

Assign Percentage Seq II to each entry below.
# tgt: biotinylated CD59 (Homo sapiens, UniProt P13987)
# Construct: Recombinant soluble human CD59 with an additional C-terminal cysteine residue
# Sequence (P13987 26-102 limits assumed): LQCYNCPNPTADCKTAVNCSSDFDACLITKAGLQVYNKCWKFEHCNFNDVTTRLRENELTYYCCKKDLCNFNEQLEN
# run_description: mRNA-display cyclic peptide screen against CD59-biotin, NGS abundance after 6th selection round
# stated_conditions: counts normalised by total counts of sample Seq II; percentage of the pool, sheet R6
Write the number in % without appending the unit.

Task: Item under review: FVMGNRDHTRG . Reported Percentage Seq II?
Result: 0.023

Task: Another sequence to check: FQRGTRSTSWG
Result: 0.035

Task: Another sequence to check: CFAFRLSQTSV
Result: 0.146

Task: Another sequence to check: FVTGDRDHTRG
Result: 0.121

Task: Another sequence to check: CYGGRTFIYEWS
Result: 0.042

Task: Another sequence to check: QWNRWYGMDEL
Result: 0.260

Task: Another sequence to check: CYGGRTFIYVWS
Result: 0.023

Task: Another sequence to check: SKNGLTFLCS
Result: 0.032

Task: Another sequence to check: FIRGNSTSVLFLRQRQRQLGRGAE
Result: 0.072

Task: Another sequence to check: VIWGSRLATGG
Result: 0.026

Task: Another sequence to check: FQYFGTGIAFG
Result: 0.325

Task: Another sequence to check: EIRGALNWVRG
Result: 0.146

Task: Another sequence to check: CFANRLYGSDSH
Result: 0.035

Task: Another sequence to check: WRDRFDQCVR
Result: 0.053

Task: Another sequence to check: CFGRRADPDGI
Result: 0.030

Task: Another sequence to check: FVTGNRDRTRG
Result: 0.026

Task: Another sequence to check: VVRGGTAFRYE
Result: 0.026

Task: Another sequence to check: CFASRTLLNTSV
Result: 0.104

Task: Another sequence to check: IARGDRTFSFG
Result: 0.035

Task: Another sequence to check: AVWGSAHDRWE
Result: 0.046
